Test system: BV-2
Test: Anti-inflammatory activity in mouse BV2 cells assessed as inhibition of LPS-induced nitric oxide production pretreated followed by LPS-stimulation by griess assay
Type: functional, cell-based
pIC50: −log10 of the molar value.
endpoint: pIC50

> print(dat)
                       smiles.input  endpoint  result.value
1  CCCCC/C=C/C(=O)CCc1ccc(O)c(OC)c1     pIC50          5.25

----------
// reported viability at 24 h, 20 µM for each item listed
Experiment: Cytotoxicity against LPS-stimulated mouse BV2 cells assessed as cell viability at 20 uM after 24 hrs by MTT assay relative to control
Format: cell-based, BV-2
Details: read-out: Activity
endpoint: viability at 24 h, 20 µM (%)

> print(dat)
                                    molecule                  endpoint  unit.label  result.value
 1   CNC(=N)NCCC[C@H](N)C(=O)O [TILARGININE]  viability at 24 h, 20 µM           %          94.4
 2   C=CCc1ccc(OC)c(-c2cc(COCc3ccccc3)on2)c1  viability at 24 h, 20 µM           %           145
 3               CCCc1ccc(O)c(-c2cc[nH]n2)c1  viability at 24 h, 20 µM           %          94.7
 4          C=CCc1ccc(OC)c(-c2ccn(CC=C)n2)c1  viability at 24 h, 20 µM           %           109
 5              C=CCn1ccc(-c2cc(Br)ccc2OC)n1  viability at 24 h, 20 µM           %          92.2
 6      C=CCc1ccc(O)c(-c2ccn(Cc3ccccc3)n2)c1  viability at 24 h, 20 µM           %          99.5
 7  C=CCc1ccc(OC)c(-c2cc(CN3CCN(C(=O)OC(C)(C)C)CC3)on2)c1  viability at 24 h, 20 µM           %           117
 8   C=CCc1ccc(OC)c(-c2cc(COCC(=O)OCC)on2)c1  viability at 24 h, 20 µM           %           126
 9       CCCc1ccc(O)c(-c2ccn(Cc3ccccc3)n2)c1  viability at 24 h, 20 µM           %           126
10       CCOC(=O)COCc1cc(-c2cc(Br)ccc2OC)no1  viability at 24 h, 20 µM           %           122
11            C=CCc1ccc(O)c(-c2cc(CCC)on2)c1  viability at 24 h, 20 µM           %          93.3
12  C=CCc1ccc(OC)c(-c2cc(CN3CCN(Cc4ccccc4)CC3)on2)c1  viability at 24 h, 20 µM           %          98.6
13       CCCc1ccc(O)c(-c2ccn(-c3ccccc3)n2)c1  viability at 24 h, 20 µM           %           125
14           C=CCc1ccc(O)c(-c2ccn(CC=C)n2)c1  viability at 24 h, 20 µM           %          59.9
15         COc1ccc(Br)cc1-c1ccn(Cc2ccccc2)n1  viability at 24 h, 20 µM           %           122
16       COc1ccc(Br)cc1-c1cc(COCc2ccccc2)on1  viability at 24 h, 20 µM           %           104
17             CCCc1ccc(O)c(-c2ccn(CCC)n2)c1  viability at 24 h, 20 µM           %           129
18  C=CCc1ccc(OC)c(-c2cc(CN3CCN(CC=C)CC3)on2)c1  viability at 24 h, 20 µM           %           101
19           C=CCc1ccc(OC)c(-c2cc(CCC)on2)c1  viability at 24 h, 20 µM           %          98.2
20               CCCc1cc(-c2cc(Br)ccc2OC)no1  viability at 24 h, 20 µM           %          97.9
21     C=CCc1ccc(OC)c(-c2ccn(Cc3ccccc3)n2)c1  viability at 24 h, 20 µM           %           112
22      C=CCc1ccc(O)c(-c2ccn(-c3ccccc3)n2)c1  viability at 24 h, 20 µM           %           125
23          C=CCOCc1cc(-c2cc(CC=C)ccc2OC)no1  viability at 24 h, 20 µM           %           141
24  C=CCc1ccc(O)c(-c2ccc(O)c(CC=C)c2)c1 [HONOKIOL]  viability at 24 h, 20 µM           %           118
25               C=CCn1ccc(-c2cc(Br)ccc2O)n1  viability at 24 h, 20 µM           %           113
26                COc1ccc(Br)cc1-c1cc(CO)on1  viability at 24 h, 20 µM           %          94.1
27          Oc1ccc(Br)cc1-c1ccn(Cc2ccccc2)n1  viability at 24 h, 20 µM           %           107
28          Oc1ccc(Br)cc1-c1ccn(-c2ccccc2)n1  viability at 24 h, 20 µM           %           109
29  C=CCc1ccc(OC)c(-c2cc(CN3CCN(CC(=O)OCC)CC3)on2)c1  viability at 24 h, 20 µM           %          93.2
30  COc1ccc(Br)cc1-c1cc(CN2CCN(C(=O)OC(C)(C)C)CC2)on1  viability at 24 h, 20 µM           %           100
31            C=CCc1ccc(OC)c(-c2cc(CO)on2)c1  viability at 24 h, 20 µM           %           120
